src = patent US12398154B2

This document collects IC50 values reported for KRas WT (Homo sapiens).
Quick reminder: number only, in µM, skip the unit.

Example entries and their recorded answers appear below.
compound="CCc1c(F)ccc2cc(O)cc(-c3ncc4c(N5CCCCC5)nc(OC[C@@]56CCCN5C[C@H](O)C6)nc4c3F)c12 [Example 7]" measure=IC50 value_observed=0.003
compound="O=C1CC2(CCN(c3nc(OCC45CCCN4CCC5)nc4c(F)c(-c5cccc6cccc(F)c56)ncc34)CC2)N1 [Example 77]" measure=IC50 value_observed=1.41
compound="Fc1c(-c2cccc3cccc(F)c23)ncc2c(N3CC(c4ccncc4)C3)nc(OCC34CCCN3CCC4)nc12 [Example 213]" measure=IC50 value_observed=16.8

[ask] Hello, I am looking for reported IC50 with KRas WT (Homo sapiens) for O=C1CC2(CCCN(c3nc(OCC45CCCN4CCC5)nc4c(F)c(-c5cccc6cccc(F)c56)ncc34)C2)C(=O)N1 (centres unmarked) [Example 265] . Could you help?
[reply] 2.46

[ask] Provide the documented IC50 with KRas WT (Homo sapiens) as the system for Fc1c(-c2cccc3cccc(F)c23)ncc2c(NCc3ccc4nonc4c3)nc(OCC34CCCN3CCC4)nc12 [Example 125]
Sequence (P01116 1-169 isoform P01116-2): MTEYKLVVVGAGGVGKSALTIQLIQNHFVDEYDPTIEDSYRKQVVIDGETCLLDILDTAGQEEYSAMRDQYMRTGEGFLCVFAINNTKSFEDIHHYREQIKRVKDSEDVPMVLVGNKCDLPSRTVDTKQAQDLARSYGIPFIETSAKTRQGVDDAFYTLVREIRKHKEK
[reply] 13.3

[ask] Reported IC50 for KRas WT (Homo sapiens), given NS(=O)(=O)CC1CN(c2nc(OCC34CCCN3CCC4)nc3c(F)c(-c4cccc5cccc(F)c45)ncc23)CCO1 (centres unmarked) [Example 249] ?
[reply] 1.06

[ask] Lookup: IC50 / KRas WT (Homo sapiens) / Fc1c(-c2cccc3cccc(F)c23)ncc2c(N3C[C@@H]4CC[C@@H](C4)C3)nc(OCC34CCCN3CCC4)nc12 [Example 18]
[reply] 6.81

[ask] Observed IC50 on KRas WT (Homo sapiens) for Cc1ccc2[nH]ncc2c1-c1ncc2c(N3CCCC(C)(O)C3)nc(OCC34CCCN3CCC4)nc2c1F (centres unmarked) [Example 430] , please.
[reply] 8.05

[ask] Enter reported IC50 observed with KRas WT (Homo sapiens) for Cc1cc(N)nc(-c2ncc3c(N4CCCC(C)(O)C4)nc(OC[C@@]45CCCN4C[C@H](F)C5)nc3c2F)c1C(F)(F)F (some centres unmarked) [Example 459]
[reply] 0.688

[ask] KRas WT (Homo sapiens) / IC50 / NS(=O)(=O)CC1CCCN(c2nc(OCC34CCCN3CCC4)nc3c(F)c(-c4cccc5cccc(Cl)c45)ncc23)C1 (centres unmarked) [Example 281] : value?
[reply] 0.061

[ask] Please tell me: IC50 of Fc1c(-c2cccc3cccc(F)c23)ncc2c(NCc3nnc4cccnn34)nc(OCC34CCCN3CCC4)nc12 [Example 122] , system KRas WT (Homo sapiens)?
[reply] 26

[ask] What is its IC50 for KRas WT (Homo sapiens)? Entry: Cc1cc2[nH]ncc2c(-c2ncc3c(N4CCCC(C)(O)C4)nc(OC[C@@]45CCCN4C[C@H](F)C5)nc3c2F)c1C (some centres unmarked) [Example 471]
[reply] 0.362

[ask] Could you share what IC50 was measured for N#Cc1cccc2cccc(-c3ncc4c(N5CCCC6(CC(=O)N6)C5)nc(OCC56CCCN5CCC6)nc4c3F)c12 (centres unmarked) [Example 451] , tested on KRas WT (Homo sapiens)?;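 further: binding to KRas read as TR-FRET displacement after a one-hour room-temperature incubation, IC50 derived from percent-of-control values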
[reply] 2.27
